B1: library; a variant is named by its letters at X, in order (parent)
chain: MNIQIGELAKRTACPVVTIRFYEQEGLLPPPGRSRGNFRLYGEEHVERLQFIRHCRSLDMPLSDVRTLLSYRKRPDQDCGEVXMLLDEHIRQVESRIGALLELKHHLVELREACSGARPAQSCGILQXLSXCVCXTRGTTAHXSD

Variants of: B1
Experiment: sfGFP reporter fluorescence (15 h) (µM FITC); higher = higher leak
Settings: library round: Round 2; ligand: none
MEASUREMENT NAME: sfGFP reporter fluorescence
Answers are plain numbers.

Consider the reported sfGFP reporter fluorescence for these variants:
BIOPOLYMER SEQUENCE: MNIQIGELAKRTACPVVTIRFYEQEGLLPPPGRSRGNFRLYGEEHVERLQFIRHCRSLDMPLSDVRTLLSYRKRPDQDCGEVTMLLDEHIRQVESRIGALLELKHHLLELREACSGARPAQSCGILQGLSDCVCRTRGTTAHPSD
MEASUREMENT NAME: sfGFP reporter fluorescence
NUMBER: 0.0448
--
BIOPOLYMER SEQUENCE: MNIQIGELAKRTACPVVTIRFYEQEGLLPPPGRSRGNFRLYGEEHVERLQFIRHCRSLDMPLSTVRTLLSYRKRPDQDCGEVNMLLDAHIRQVESRIGALLELKHHLVELREACSGARPAQSCGILQGLSDCVCRTRGTTAHPSD
MEASUREMENT NAME: sfGFP reporter fluorescence
NUMBER: 0.369
--
BIOPOLYMER SEQUENCE: MNIQIGELAKRTACPVVTIRFYEQEGLLPPPGRSRGNFRLYGEEHVERLQFIRHCRSLDMPLSDVRTLLSYRKRPDQDCGEVNMLLDEHIRQVESRIGALLELKHHLLELREACSGARPAQSCGILQGLSDCVCDTRGATAHRSD
MEASUREMENT NAME: sfGFP reporter fluorescence
NUMBER: 0.0498

Give me sfGFP reporter fluorescence for each of these variants, listed below.
1. MNIQIGELAKRTACPVVTIRFYEQEGLLPPPGRSRGNFRLYGEEHVERLQFIRHCRSLDMPLSDVRTLLSYRKRPDQDCGEVNMLLDEHIRQVESRIGALLELKHHCVELREACSGARPAQSCGILQILSACVCDTRGTTAHPSD
2. MNIQIGELAKRTACPVVTIRFYEQEGLLPPPGRSRGNFRLYGEEHVERLQFIRHCRSLDMPLSDVRTLLSYRKRPDQDCGEVTMLLDEHIRQVESRIGALLELKHHLLELREACSGARPAQSCGILQGLSSCVCDTRGTTAHPSD
3. MNIQIGELAKRTACPVVTIRFYEQEGLLPPPGRSRGNFRLYGEEHVERLQFIRHCRSLDMPLSDVRTLLSYRKRPDQDCGEVTMLLDEHIRQVESRIGALLELKHHIVELRAACSGARPAQSCGILQGLSDCVCDTRGTTAHPSD
4. MNIQIGELAKRTACPVVTIRFYEQEGLLPPPGRSRGNFRLYGEEHVERLQFIRHCRSLDMPLSDVRTLLSYRKRPDQDCGEVNMLLDEHIRQVESRIGALLELKHHLIELREACGGARPAQSCGILQGLSCCVCDTRGTTAHPSD

Result ::
[2.06, 0.0452, 0.0475, 0.0507]

Give me sfGFP reporter fluorescence for each of these variants, listed below.
1. MNIQIGELAKRTACPVVTIRFYEQEGLLPPPGRSRGNFRLYGEEHVERLQFIRHCRSLDMPLSDVRTLLSYRKRPDQDCGEVNMLLDEHIRQVESRIGALLELKHHLVELREACGGARPAQSCGILQGLSTCPCDTRGTTAHPSD
2. MNIQIGELAKRTACPVVTIRFYEQEGLLPPPGRSRGNFRLYGEEHVERLQFIRHCRSLDMPLSDVRTLLSYRKRPDQDCGEVNMLLDEHIRQVESRIGALLELKHHLVEIREACGGARPAQSCGILQGLSDCVCDTRGTTAHWSD
3. MNIQIGELAKRTACPVVTIRFYEQEGLLPPPGRSRGNFRLYGEEHVERLQFIRHCRSLDLNLSNVRTLLSYRKRPDQDCGEVNMLLDEHIRQVESRIGALLELKHHLVELREACSGARPAQSCGILQGLSDCVCDTRGTTAHPSD
4. MNIQIGELAKRTACPVVTIRFYEQEGLLPPPGRSRGNFRLYGEEHVERLQFIRHCRSLDMPLSDVRTLLSYRKRPDQDCGEVNMLLDEHIRQVESRIGALLELKHHLVELREACSGARPAQSCGVLQHLSCCVCDTRGTTAHPSD
5. MNIQIGELAKRTACPVVTIRFYEQEGLLPPPGRSRGNFRLYGEEHVERLQFIRHCRSLDMPLSDVRTLLSYRKRPDQDCGEVNMLLDEHLRQVESRIGALLELKHHLVELREACSGARPAQSCGILQILSDCVEDTRGTTAHPSD
6. MNIQIGELAKRTACPVVTIRFYEQEGLLPPPGRSRGNFRLYGEEHVERLQFIRHCRSLDMPLSDVRTLLSYRKRPDQDCGEVMMLLDEHIRQVESRIGALLELKHHLVELREACSGARPAQSCGILQGLSACVCATRGTTAHPSD

Result ::
1: 0.0474; 2: 0.0528; 3: 0.291; 4: 0.0459; 5: 0.0691; 6: 0.0477

Query :: What value of measured sfGFP reporter fluorescence is listed for MNIQIGELAKRTACPVVTIRFYEQEGLLPPPGRSRGNFRLYGEEHVERLQFIRHCRSLDLPLSKVRTLLSYRKRPDQDCGEVNMLLDEHIRQVESRIGALLELKHHLVELLEACSGARPAQSCGILQILSDCVCDTRGTTAHPSD ?
Result :: 1.98
